Items are presented alongside their recorded pKd.
Biological target: p67^phox recombinant protein (1-200) (Homo sapiens)
Construct: using the pET30-HIS p67(1-212) plasmid; His; made in house; host or cells: E. coli BL21(DE3)
Sequence (P19878 1-212): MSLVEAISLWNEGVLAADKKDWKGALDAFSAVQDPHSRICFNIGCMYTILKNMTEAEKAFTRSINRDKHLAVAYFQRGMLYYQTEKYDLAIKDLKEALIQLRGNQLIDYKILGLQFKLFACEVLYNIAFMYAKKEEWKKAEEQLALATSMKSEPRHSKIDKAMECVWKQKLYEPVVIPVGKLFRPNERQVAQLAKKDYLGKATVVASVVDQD
Assay: microscale thermophoresis binding to p67phox
pKd: −log10 of the molar value.

- MOLECULE: "COc1ccc2c(c1)C1C=C(c3ccccc3)NN1C(c1cccc([N+](=O)[O-])c1)O2 (centres unmarked)"
  MEASUREMENT TARGET: "p67^phox recombinant protein (1-200) (Homo sapiens)"
  pKd: "~7.00"

Let us examine a further case.
### Prompt Look up pKd of O=[N+]([O-])c1cccc(C2Nc3ccc([N+](=O)[O-])cc3C3C=CCC32)c1 (centres unmarked) and report it.
### Response ~6.82

Values from patent US9567347B2
